The following compounds are shown together with reported TGI values.
Test system: A549 NSCLC
Assay: NCI tumour cell line growth inhibition, 48 h

**Q:** State its TGI: `O=C1OC(c2ccccc2)=N/C1=C\c1cccc(F)c1`
**A:** > 100 µM

**Q:** Answer with the recorded TGI for the compound listed here: CCC(Oc1ccc(OC)c2ccccc(=O)c12)C(=O)O (stereo not drawn)
**A:** > 100 µM

**Q:** // Input: `CC1(C)OC(=O)C=C([O-])O1.CC1(C)OC(=O)C=C([O-])O1.CC[O-].CC[O-].[Ti+4]` . Output its TGI only.
**A:** > 100 µM

**Q:** Supply recorded TGI for CC1=NN(C(=O)CC(=O)Nc2cccc(Cl)c2)C(=O)C1N=Nc1ccc(C(=O)O)cc1 (stereo not drawn) here.
**A:** > 100 µM

----------
System: HOP-62 NSCLC
Experiment: NCI tumour cell line growth inhibition, 48 h
endpoint: TGI

**Q:** Fill in TGI for record `ClCc1ccc(Cn2cnc3c(Cl)nc(Cl)nc32)cc1`
**A:** 5.09 µM

**Q:** Please supply the value of reported TGI for the item `COC(=O)[C@@H](C)C[C@H](Cc1ccccc1)NC(=O)c1csc([C@@H](C[C@H](C(C)C)N(C)C(=O)[C@H](C)NC(=O)[C@H]2CCCCN2C)OC(C)=O)n1`
**A:** > 25 µM

Further cases:
**Q:** Please look at this compound and report its TGI: CC(C)c1cc(OCC(O)CO)cc(C(C)C)c1 (configuration not stated)
**A:** > 100 µM

**Q:** State its TGI: `O=C(O)c1ccccc1NC(=O)C1CCCCC1`
**A:** > 100 µM

**Q:** Supply measured TGI of CC#CC(O)(C(=O)OC1CC2CCC(C1)N2C)C1CCCC1 (configuration not stated) in your reply.
**A:** > 100 µM

----------
Tested on: NCI-H23 lung
Test: NCI tumour cell line growth inhibition, 48 h
endpoint: TGI

Example compounds with recorded TGI:
**Q:** # return recorded TGI for input O=C1C2Nc3ccccc3SC2C(=O)N1c1ccccc1C(F)(F)F (stereo unspecified)
**A:** 60.3 µM

**Q:** Please look at this compound and report its TGI: `N#Cc1sc2c(c1O)c(=O)n(-c1ccccc1)c(=S)n2-c1ccccc1`
**A:** > 100 µM

**Q:** Answer with the recorded TGI for the compound listed here: `CCN(CC)CCSCCCNc1c2ccc(Cl)cc2nc2ccc(OC)cc12`
**A:** 3.28 µM

**Q:** Give me measured TGI, please, for this compound: `CC(=O)c1sc(=N)n(-c2c(C)cccc2C)c1C`
**A:** > 100 µM

**Q:** In one line, give reported TGI of the entry `Cc1cc(N(CCC#N)CCC#N)ccc1C=Nc1ccc(C(=O)NN2C(=O)/C(=C/c3ccc(N(CCC#N)CCC#N)cc3)N=C2c2cc([N+](=O)[O-])ccc2Cl)cc1` .
**A:** > 100 µM

**Q:** Give the value of TGI reported for the following: `N#Cc1nc(COCCOCc2ccc(F)cc2)oc1N`
**A:** > 100 µM

**Q:** Give me measured TGI, please, for this compound: COc1cc2c(c(OC3OC(CO)C(O)C(O)C3O)c1)C(=O)CC(c1ccc(O)cc1)O2 (stereo unspecified)
**A:** > 100 µM

**Q:** Could you please provide reported TGI for C[C@]12CC[C@H](O)CC1=CC[C@@H]1C2CC[C@]2(C)Nc3c(cnn3-c3ccc(F)cc3)CC12 (stereo partly specified) ? Thanks!
**A:** > 100 µM

**Q:** Return TGI for the following compound: `CC(C)COC(=O)c1ccc2[nH]c(O)c(C=Nc3ccc(S(N)(=O)=O)cc3)c2c1`
**A:** 5.11 µM

**Q:** In one line, give reported TGI of the entry `CN1C(Cl)=NS(=O)(=O)c2ccccc21` .
**A:** > 100 µM

Further cases:
**Q:** Give the value of TGI reported for the following: `S=C1N=C(Cl)/C(=C\c2ccccc2)N1`
**A:** > 100 µM

**Q:** Indicate the recorded TGI value for this compound: `O=C1c2ccccc2C(=O)c2oc(Br)cc21`
**A:** 0.463 µM
